assay: Toxicity liver stage against HepG2, at 10uM; assay type: cell-based; design: test concentration 10 uM, cell line HepG2-A16-CD81EGFP; details: human, HepG2-A16-CD81EGFP cells; read-out: INHIBITION

{"COMPOUND": "COCC1CC2(CCN(C(=O)c3cc(C)oc3C)CC2)CN1C(C)C (stereo not drawn)", "cytotoxicity at 10 µM (%)": -11.4}
{"COMPOUND": "Cc1nccc(-c2ccccc2)c1C(=O)N1CC[C@](C)(O)C(C)(C)C1", "cytotoxicity at 10 µM (%)": -3.45}
{"COMPOUND": "COCc1nc(CNc2cc(C)nc(-c3ccccc3)n2)no1", "cytotoxicity at 10 µM (%)": 7.06}
{"COMPOUND": "CC(C)C(C)NC(=O)Nc1ccc(F)c(C(N)=O)c1 (stereo not drawn)", "cytotoxicity at 10 µM (%)": -6.54}
{"COMPOUND": "CCOc1cc(C)nc(N2CCN(C(=O)C(C)NC(C)=O)CC2)n1 (stereo not drawn)", "cytotoxicity at 10 µM (%)": -4.41}
{"COMPOUND": "Cn1ccnc1-c1ccccc1C(=O)N1CCc2c(nc(N)[nH]c2=O)C1", "cytotoxicity at 10 µM (%)": -5.3}
{"COMPOUND": "CN(C)C(=O)Cc1ccc(NC(=O)c2cn(C)nn2)cc1", "cytotoxicity at 10 µM (%)": -5.27}
{"COMPOUND": "COCC(=O)N1CCC(C(=O)Nc2ccc(C(C)=O)cc2)CC1", "cytotoxicity at 10 µM (%)": 1.73}
{"COMPOUND": "COCCn1cnc2ccc(NC(=O)c3ccc(OC)cc3)cc2c1=O", "cytotoxicity at 10 µM (%)": -6.78}
{"COMPOUND": "CCOc1nn(CC)cc1-c1nnc(SCc2ccccn2)n1C", "cytotoxicity at 10 µM (%)": -2.95}
{"COMPOUND": "CN(C)C(=O)[C@H]1C[C@H]2CN(c3ncccn3)C[C@@H]1O2", "cytotoxicity at 10 µM (%)": 6.1}
{"COMPOUND": "Cc1ccc(-c2nnn(CCN3C(=O)CCC3=O)n2)cc1", "cytotoxicity at 10 µM (%)": 1.33}
{"COMPOUND": "Cn1cc(I)c(C(=O)NCCCn2cc(Br)cn2)n1", "cytotoxicity at 10 µM (%)": 6.54}
{"COMPOUND": "O=C(Nc1cccnc1)[C@H]1CN(C2CCCC2)C[C@H]2OCC[C@@H]12", "cytotoxicity at 10 µM (%)": 9.81}
{"COMPOUND": "O=C(NCc1ccc(Cl)cc1)C1CCCN(c2ccc3nncn3n2)C1 (stereo not drawn)", "cytotoxicity at 10 µM (%)": 6.44}
{"COMPOUND": "CCC1=NC(SCC(=O)c2ccc(Cl)cc2)c2cc(CC)sc2N1 (stereo not drawn)", "cytotoxicity at 10 µM (%)": 8.16}
{"COMPOUND": "O=C(O)C1CCN(c2nc3c(-c4ccccc4F)csc3c(=O)[nH]2)CC1", "cytotoxicity at 10 µM (%)": -10}
{"COMPOUND": "COC(=O)C1CN(Cc2ccn(-c3ccc(F)cc3)n2)CCO1 (stereo not drawn)", "cytotoxicity at 10 µM (%)": -8.51}
{"COMPOUND": "Cc1nnc(CN(C)C2CCN(CCc3ccccn3)CC2)o1", "cytotoxicity at 10 µM (%)": 1.04}
{"COMPOUND": "Cc1cc(NC(=O)CN2C(=O)CC(C)(C)c3ccccc32)no1", "cytotoxicity at 10 µM (%)": -3.29}
{"COMPOUND": "COCCN1CC(C(=O)N(C)Cc2ccc(Cl)s2)CC1=O (stereo not drawn)", "cytotoxicity at 10 µM (%)": 8.69}
{"COMPOUND": "CC(C)c1nc(NS(=O)(=O)c2ccccc2Cl)no1", "cytotoxicity at 10 µM (%)": 10}
{"COMPOUND": "O=C(NCCN1CCOCC1)c1ccc(-c2ccc(F)cc2)nc1O", "cytotoxicity at 10 µM (%)": 2.25}
